- assayed target: human neutrophil elastase (Homo sapiens)
- Sequence (P08246 30-267): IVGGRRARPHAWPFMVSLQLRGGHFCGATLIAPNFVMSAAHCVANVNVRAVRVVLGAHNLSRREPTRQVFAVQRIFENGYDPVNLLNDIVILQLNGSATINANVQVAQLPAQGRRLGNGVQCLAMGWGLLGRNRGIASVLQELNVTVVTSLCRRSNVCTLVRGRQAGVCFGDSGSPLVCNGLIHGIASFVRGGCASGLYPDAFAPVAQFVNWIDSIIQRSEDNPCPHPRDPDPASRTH
- measurement notes: In vitro assay of human neutrophil elastase (HNE)
- Format: biochemical
- particulars: 118 nM purified human neutrophil elastase, pH 8.6, 15 min incubation at 30° C., MeO-succinyl-alanyl-alanyl-prolyl-valyl-p-nitroanilide substrate; read-out: HNE IC50
Structures can show the parent of a compound that is named as a salt.
measure name: IC50 (nM)

Reported IC50 for CCC[C@H]1C(=O)N(S(=O)(=O)c2ccc3ccccc3c2)[C@H]2CCN(C(=O)CN3CCCCC3)[C@H]12 (relative stereo) was 205

Reported IC50 for CS(=O)(=O)N1C(=O)[C@H](C2CC2)[C@@H]2[C@@H]1CCN2C(=O)/C=C/CN1CCCCC1 (relative stereo) [Example 257, hydrochloride] was 62

Reported IC50 for CCC[C@H]1C(=O)N(S(C)(=O)=O)[C@H]2CCN(C(=O)CCN3CCC3)[C@H]12 (relative stereo) [Example 97, hydrochloride] was 202

Reported IC50 for CCC[C@H]1C(=O)N(S(C)(=O)=O)[C@H]2CCN(S(=O)(=O)CCCN3CCN(C)CC3)[C@H]12 (relative stereo) [Example 10, dihydrochloride] was 39

Reported IC50 for CCC[C@H]1C(=O)N(S(C)(=O)=O)[C@H]2CCN(S(=O)(=O)c3cccc(C(F)(F)F)c3)[C@H]12 (relative stereo) was 62

Reported IC50 for CCC[C@H]1C(=O)N(S(=O)(=O)c2ccc3ccccc3c2)[C@H]2CCN(S(=O)(=O)Cc3ccccc3)[C@H]12 (relative stereo) was 52

[a] CCC[C@H]1C(=O)N(S(C)(=O)=O)[C@H]2CCN(C(=O)CCCCCCCCCN3CCN(C)CC3)[C@H]12 (relative stereo) [Example 69, dihydrochloride]
[b] CC(C)[C@H]1C(=O)N(S(C)(=O)=O)[C@H]2CCN(C(=O)/C=C/CN(C)CC(N)=O)[C@H]12 (relative stereo) [Example 150, hydrochloride]
### Prompt Hi there! Just curious which has the higher IC50 between a and b . Give the chosen item's label as your response.
### Response a
(a: 80 nM, b: 50 nM)

[I] CCC[C@H]1C(=O)N(S(C)(=O)=O)[C@H]2CCN(C(=O)/C=C/c3ccc(CN4CCN(C)CC4)cc3)[C@H]12 (relative stereo) [Example 132, dihydrochloride]
[II] CCC[C@H]1C(=O)N(S(=O)(=O)CC(F)(F)F)[C@H]2CCN(C(=O)CCN3CCCCC3)[C@H]12 (relative stereo)
### Prompt Hi there! Just curious which has the higher IC50 between I and II . Give the chosen item's label as your response.
### Response II
(II: 413 nM, I: 83 nM)

[A] CCC[C@H]1C(=O)N(S(=O)(=O)c2ccc3ccccc3c2)[C@H]2CCN(S(=O)(=O)CCCN3CCOCC3)[C@H]12 (relative stereo)
[B] CCC[C@H]1C(=O)N(S(=O)(=O)c2cccc3ccccc23)[C@H]2CCN(S(=O)(=O)Cc3cccc(-c4nn[nH]n4)c3)[C@H]12 (relative stereo)
### Prompt Of the pair A and B , name the member with the lesser recorded IC50. Give the chosen item's label as your response.
### Response A
(A: 60 nM, B: 286 nM)

====

- assayed target: human neutrophil elastase (Homo sapiens)
- measurement notes: In vitro assay of human neutrophil elastase (HNE)
- Type: biochemical
- particulars: 118 nM purified human neutrophil elastase, pH 8.6, 15 min incubation at 30° C., MeO-succinyl-alanyl-alanyl-prolyl-valyl-p-nitroanilide substrate; read-out: HNE IC50
pIC50: −log10 of the molar value. Where a name gives a salt, the structure may show the parent alone.
measure name: pIC50

// below: answered molecules
Reported pIC50 for CCC[C@H]1C(=O)N(S(C)(=O)=O)[C@H]2CCN(C(=O)/C=C/C(=O)OCC)[C@H]12 (relative stereo) [Example 128] was 7.52

Reported pIC50 for CC(C)[C@H]1C(=O)N(S(C)(=O)=O)[C@H]2CCN(C(=O)c3ccc(CN4CCCC4)cc3)[C@H]12.Cl (relative stereo) [Example 173, hydrochloride] was 7.19

Reported pIC50 for CCC[C@H]1C(=O)N(S(=O)(=O)c2ccc3ccccc3c2)[C@H]2CCN(S(=O)(=O)CCCN3CCN(C)CC3)[C@H]12 (relative stereo) [Example 14] was 6.71

[1] CCC[C@H]1C(=O)N(S(=O)(=O)c2cccc3cccnc23)[C@H]2CCN(S(C)(=O)=O)[C@H]12 (relative stereo) [Example 52]
[2] CC(C)[C@H]1C(=O)N(S(C)(=O)=O)[C@H]2CCN(C(=O)/C=C/CN3CCC(C(N)=O)CC3)[C@H]12.Cl (relative stereo) [Example 152, hydrochloride]
[3] CCC[C@H]1C(=O)N(S(C)(=O)=O)[C@H]2CCN(C(=O)c3cccs3)[C@H]12 (relative stereo) [Example 232]
### Prompt Arrange the 3 molecules from largest to smallest pIC50. Answer with the labels in sequence, matching the requested order.
### Response 2, 3, 1

[1] CCC[C@H]1C(=O)N(S(C)(=O)=O)[C@H]2CCN(C(=O)CCCCCN(C)c3ccccc3)[C@H]12 (relative stereo) [Example 81, hydrochloride]
[2] CCC[C@H]1C(=O)N(S(C)(=O)=O)[C@H]2CCN(C(=O)CCCCCCCCCN3CCOCC3)[C@H]12 (relative stereo) [Example 64]
[3] C=CC[C@@H]1C(=O)N(S(=O)(=O)c2ccc3ccccc3c2)[C@@H]2CCN(C(=O)OCc3ccccc3)[C@@H]12 [Example 53]
### Prompt Order each entry by recorded pIC50, climbing from the minimum. Answer with the labels in sequence, matching the requested order.
### Response 3, 1, 2

====

- assayed target: human neutrophil elastase (Homo sapiens)
- measurement notes: In vitro assay of human neutrophil elastase (HNE)
- Format: biochemical
- particulars: 118 nM purified human neutrophil elastase, pH 8.6, 15 min incubation at 30° C., MeO-succinyl-alanyl-alanyl-prolyl-valyl-p-nitroanilide substrate; read-out: HNE IC50
pIC50: −log10 of the molar value.
measure name: pIC50

// below: answered compounds
Reported pIC50 for CCC[C@H]1C(=O)N(S(C)(=O)=O)[C@H]2CCN(C(C)=O)[C@H]12 (relative stereo) was 7.19

Reported pIC50 for CCCCS(=O)(=O)N1C(=O)[C@H](CCC)[C@@H]2[C@@H]1CCN2S(=O)(=O)CCCN1CCCCC1 (relative stereo) was 7.42

Reported pIC50 for CCC[C@H]1C(=O)N(S(C)(=O)=O)[C@H]2CCN(S(=O)(=O)c3ccc(N)cc3)[C@H]12 (relative stereo) was 7.96

Reported pIC50 for CC(C)NCc1ccc(C(=O)N2CC[C@H]3[C@H]2[C@@H](C(C)C)C(=O)N3S(C)(=O)=O)cc1.Cl (relative stereo) [Example 179, hydrochloride] was 7.33

[A] CC(C)[C@H]1C(=O)N(S(C)(=O)=O)[C@H]2CCN(C(=O)/C=C/CN3CCCC3)[C@H]12.Cl (relative stereo) [Example 146, hydrochloride]
[B] CCC[C@H]1C(=O)N(S(C)(=O)=O)[C@H]2CCN(C(=O)CCN3CCOCC3)[C@H]12 (relative stereo)
### Prompt Hi there! Just curious which has the higher pIC50 between A and B . Give the chosen item's label as your response.
### Response A

====

- assayed target: human neutrophil elastase (Homo sapiens)
- measurement notes: In vitro assay of human neutrophil elastase (HNE)
- Type: biochemical
- particulars: 118 nM purified human neutrophil elastase, pH 8.6, 15 min incubation at 30° C., MeO-succinyl-alanyl-alanyl-prolyl-valyl-p-nitroanilide substrate; read-out: HNE IC50
Counter-ions that a name gives are not always drawn.
measure name: IC50 (µM)

// below: answered compounds
Reported IC50 for C=CC[C@H]1C(=O)N(S(C)(=O)=O)[C@H]2CCN(C(=O)OCc3ccccc3)[C@H]12 (relative stereo) [Example 6] was 0.07

Reported IC50 for CC(C)[C@H]1C(=O)N(S(C)(=O)=O)[C@H]2CCN(C(=O)/C=C/CN(C)C)[C@H]12.Cl (relative stereo) [Example 148, hydrochloride] was 0.035

Reported IC50 for CC(C)[C@H]1C(=O)N(S(C)(=O)=O)[C@H]2CCN(C(=O)c3ccc(CN4C(C)CCCC4C)cc3)[C@H]12.Cl (relative stereo) [Example 200, hydrochloride] was 0.053

[A] CCN(CC)Cc1ccc(C(=O)N2CC[C@H]3[C@H]2[C@@H](C(C)C)C(=O)N3S(C)(=O)=O)cc1.Cl (relative stereo) [Example 182, hydrochloride]
[B] CCC[C@H]1C(=O)N(S(C)(=O)=O)[C@H]2CCN(C(=O)c3cccnc3)[C@H]12 (relative stereo) [Example 247]
[C] CCCCOc1ccc(S(=O)(=O)N2CC[C@H]3[C@H]2[C@@H](CCC)C(=O)N3S(C)(=O)=O)cc1 (relative stereo) [Example 214]
[D] CCC[C@H]1C(=O)N(S(C)(=O)=O)[C@H]2CCN(C(=O)CCN(CC)CC)[C@H]12 (relative stereo) [Example 91, hydrochloride]
### Prompt Order each entry by recorded IC50, climbing from the minimum. Answer with the labels in sequence, matching the requested order.
### Response B, A, D, C

[a] CCC[C@H]1C(=O)N(S(C)(=O)=O)[C@H]2CCN(C(=O)CCCCCN3CCCCC3)[C@H]12 (relative stereo) [Example 74, hydrochloride]
[b] CC(C)[C@H]1C(=O)N(S(C)(=O)=O)[C@H]2CCN(S(=O)(=O)c3ccc(CN(C)C)cc3)[C@H]12 (relative stereo) [Example 197, hydrochloride]
[c] CCC[C@H]1C(=O)N(S(=O)(=O)c2ccc(C(F)(F)F)cc2)[C@H]2CCN(C(=O)CCCCCN3CCCCC3)[C@H]12 (relative stereo) [Example 202]
### Prompt Order each entry by recorded IC50, climbing from the minimum. Answer with the labels in sequence, matching the requested order.
### Response c, a, b
